B1: glmS ribozyme (parent)
chain: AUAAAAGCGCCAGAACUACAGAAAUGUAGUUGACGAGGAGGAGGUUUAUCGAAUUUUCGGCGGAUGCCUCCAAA

# Variants of: B1
# test_summary: self-cleavage kobs at 160 uM GlcN6P; higher = faster cleavage; RNA array
# test_parameters: with glucosamine-6-phosphate
This sample holds only a part of the variants without activity.
// self-cleavage kobs at 160 uM GlcN6P lookup, one value per entry

A14G G66A | 0.00369 s⁻¹
G7A U56A | < 1e-05 s⁻¹
C61G U69C C70G | 5.95e-05 s⁻¹
C16A G60C C67G | < 1e-05 s⁻¹
U54G G62C | < 1e-05 s⁻¹
G9A U65C | < 1e-05 s⁻¹
G13C A36U | < 1e-05 s⁻¹
G32U C71U | 6.14e-05 s⁻¹
G7U C50G C68G | 0.000493 s⁻¹
A53G U69G | 0.000101 s⁻¹

## Input For the variant G7C C50U , report self-cleavage kobs at 160 uM GlcN6P.
## Output < 1e-05 s⁻¹

## Input Name the recorded self-cleavage kobs at 160 uM GlcN6P of the variant listed here: C10G A39G
## Output < 1e-05 s⁻¹
